# Read-out: CD40, CD40 (gene 958)
# assay remarks: BSK_LPS_CD40: BioMAP Diversity Plus: LPS Assay for CD40 Biomarker Activity (AID 2283076)
# experimental setup: primary human HUVEC with PBMC; actives raise or lower the signal
Active and inactive are the calls of the source. Rule for the calls: active = hit-call score of the fitted dose curve at least 0.9, where 1 is the maximum; inactive = score below 0.9.
Select the correct class. Options are class 1 (active), class 0 (inactive) and nothing else.

molecule	class
CCc1ccc(O)c(C(C)(C)C)c1	class 0
CCN(CC)C(=S)SSC(=S)N(CC)CC	class 1
O=C(NO)C1(NS(=O)(=O)c2ccc(Oc3ccc(F)cc3)cc2)CCOCC1	class 0
CCCCCOC(C)=O	class 0
C=CN1CCCC1=O	class 0
Cn1cc[nH]c1=S	class 0
O=C(O)c1ccc2c(c1)nc(C(=O)NC1CCN(C3CC3)CC1)n2Cc1cc(-c2ccc(Cl)s2)on1	class 0
CC(C)CC(C)O (centres undefined)	class 0
NC(=O)NN=Cc1ccc([N+](=O)[O-])o1	class 0
CCCc1ccccc1	class 0

Q: Status in this test for "CCc1cccc(CC)c1N" ?
Result: class 0

Q: Check the results log: what was the call for "CCOC(N)=O" ?
Result: class 0

Q: So what was the verdict on "Cc1ncc([C@@H](CCCCCCc2ccc3c(n2)NCCC3)CC(=O)O)cn1" in this test?
Result: class 0

Q: In this assay, the call recorded for "CCCCCCCC/C=C\CCCCCCCC(=O)OC[C@@H](O)[C@H]1OC[C@H](O)[C@H]1O" was what?
Result: class 0
